- Experimental target: T1, KDR (1-3) monomer (UniProt P35968 20-327, limits assumed, biotin-labeled in the ELISA of Example 8)
- T1 construct: domain: domains 1 to 3; Genentech reagent; also called domains 1 to 3 of KDR
- T1 sequence (P35968 20-327 limits assumed): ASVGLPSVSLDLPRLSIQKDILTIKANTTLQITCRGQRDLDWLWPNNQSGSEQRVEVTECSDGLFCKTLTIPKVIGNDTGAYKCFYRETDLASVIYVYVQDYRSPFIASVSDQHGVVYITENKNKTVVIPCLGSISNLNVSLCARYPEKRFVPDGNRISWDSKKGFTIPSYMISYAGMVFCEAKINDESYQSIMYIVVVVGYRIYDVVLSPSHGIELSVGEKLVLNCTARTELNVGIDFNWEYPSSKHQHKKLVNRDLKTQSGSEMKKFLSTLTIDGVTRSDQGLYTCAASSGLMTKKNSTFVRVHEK
- Test name: competition ELISA: plate coated with VEGF (8-109), 100 pM biotin-labeled KDR(1-3), serial dilutions of the competing VEGF (Example 8)
Reported endpoint: fold reduction in binding (IC50 variant / IC50 VEGF(1-109))

Read the entry Gln 79* (ligand) APMAEGGGQNHHEVVKFMDVYQRSYCHPIETLVDIFQEYPDEIEYIFKPSCVPLMRCGGCCNDEGLECVPTEESNITMAIMRIKPHQGQHIGEMSFLQHNKCECRPKKD and write its reported fold reduction in binding (IC50 variant / IC50 VEGF(1-109)).
55 fold

Tell us which fold reduction in binding (IC50 variant / IC50 VEGF(1-109)) value is on record for Met 81** (ligand) APMAEGGGQNHHEVVKFMDVYQRSYCHPIETLVDIFQEYPDEIEYIFKPSCVPLMRCGGCCNDEGLECVPTEESNITMQIARIKPHQGQHIGEMSFLQHNKCECRPKKD
9 fold

Using the record for Glu 103 (ligand) APMAEGGGQNHHEVVKFMDVYQRSYCHPIETLVDIFQEYPDEIEYIFKPSCVPLMRCGGCCNDEGLECVPTEESNITMQIMRIKPHQGQHIGEMSFLQHNKCACRPKKD , state its measured fold reduction in binding (IC50 variant / IC50 VEGF(1-109)).
1 fold

Kindly indicate its recorded fold reduction in binding (IC50 variant / IC50 VEGF(1-109)). Item: Gly 65** (ligand) APMAEGGGQNHHEVVKFMDVYQRSYCHPIETLVDIFQEYPDEIEYIFKPSCVPLMRCGGCCNDEALECVPTEESNITMQIMRIKPHQGQHIGEMSFLQHNKCECRPKKD
1 fold

Recall and state the measured fold reduction in binding (IC50 variant / IC50 VEGF(1-109)) for Gln 22** (ligand) APMAEGGGQNHHEVVKFMDVYARSYCHPIETLVDIFQEYPDEIEYIFKPSCVPLMRCGGCCNDEGLECVPTEESNITMQIMRIKPHQGQHIGEMSFLQHNKCECRPKKD .
6 fold

Give reported fold reduction in binding (IC50 variant / IC50 VEGF(1-109)) value for Met 18** (ligand) APMAEGGGQNHHEVVKFADVYQRSYCHPIETLVDIFQEYPDEIEYIFKPSCVPLMRCGGCCNDEGLECVPTEESNITMQIMRIKPHQGQHIGEMSFLQHNKCECRPKKD
5 fold

Fill in fold reduction in binding (IC50 variant / IC50 VEGF(1-109)) for record Phe 47** (ligand) APMAEGGGQNHHEVVKFMDVYQRSYCHPIETLVDIFQEYPDEIEYIAKPSCVPLMRCGGCCNDEGLECVPTEESNITMQIMRIKPHQGQHIGEMSFLQHNKCECRPKKD
5 fold

State, in one line, measured fold reduction in binding (IC50 variant / IC50 VEGF(1-109)) of Asp 63** (ligand) APMAEGGGQNHHEVVKFMDVYQRSYCHPIETLVDIFQEYPDEIEYIFKPSCVPLMRCGGCCNAEGLECVPTEESNITMQIMRIKPHQGQHIGEMSFLQHNKCECRPKKD
1 fold
